Attribution: ChEMBL document CHEMBL1122963

# System: Sodium channel alpha subunits; brain (Types I, II, III) (Homo sapiens, UniProt P35498+Q99250+Q9NY46)
# Sequence (Q99250 whole entry, looked up, other chains not shown): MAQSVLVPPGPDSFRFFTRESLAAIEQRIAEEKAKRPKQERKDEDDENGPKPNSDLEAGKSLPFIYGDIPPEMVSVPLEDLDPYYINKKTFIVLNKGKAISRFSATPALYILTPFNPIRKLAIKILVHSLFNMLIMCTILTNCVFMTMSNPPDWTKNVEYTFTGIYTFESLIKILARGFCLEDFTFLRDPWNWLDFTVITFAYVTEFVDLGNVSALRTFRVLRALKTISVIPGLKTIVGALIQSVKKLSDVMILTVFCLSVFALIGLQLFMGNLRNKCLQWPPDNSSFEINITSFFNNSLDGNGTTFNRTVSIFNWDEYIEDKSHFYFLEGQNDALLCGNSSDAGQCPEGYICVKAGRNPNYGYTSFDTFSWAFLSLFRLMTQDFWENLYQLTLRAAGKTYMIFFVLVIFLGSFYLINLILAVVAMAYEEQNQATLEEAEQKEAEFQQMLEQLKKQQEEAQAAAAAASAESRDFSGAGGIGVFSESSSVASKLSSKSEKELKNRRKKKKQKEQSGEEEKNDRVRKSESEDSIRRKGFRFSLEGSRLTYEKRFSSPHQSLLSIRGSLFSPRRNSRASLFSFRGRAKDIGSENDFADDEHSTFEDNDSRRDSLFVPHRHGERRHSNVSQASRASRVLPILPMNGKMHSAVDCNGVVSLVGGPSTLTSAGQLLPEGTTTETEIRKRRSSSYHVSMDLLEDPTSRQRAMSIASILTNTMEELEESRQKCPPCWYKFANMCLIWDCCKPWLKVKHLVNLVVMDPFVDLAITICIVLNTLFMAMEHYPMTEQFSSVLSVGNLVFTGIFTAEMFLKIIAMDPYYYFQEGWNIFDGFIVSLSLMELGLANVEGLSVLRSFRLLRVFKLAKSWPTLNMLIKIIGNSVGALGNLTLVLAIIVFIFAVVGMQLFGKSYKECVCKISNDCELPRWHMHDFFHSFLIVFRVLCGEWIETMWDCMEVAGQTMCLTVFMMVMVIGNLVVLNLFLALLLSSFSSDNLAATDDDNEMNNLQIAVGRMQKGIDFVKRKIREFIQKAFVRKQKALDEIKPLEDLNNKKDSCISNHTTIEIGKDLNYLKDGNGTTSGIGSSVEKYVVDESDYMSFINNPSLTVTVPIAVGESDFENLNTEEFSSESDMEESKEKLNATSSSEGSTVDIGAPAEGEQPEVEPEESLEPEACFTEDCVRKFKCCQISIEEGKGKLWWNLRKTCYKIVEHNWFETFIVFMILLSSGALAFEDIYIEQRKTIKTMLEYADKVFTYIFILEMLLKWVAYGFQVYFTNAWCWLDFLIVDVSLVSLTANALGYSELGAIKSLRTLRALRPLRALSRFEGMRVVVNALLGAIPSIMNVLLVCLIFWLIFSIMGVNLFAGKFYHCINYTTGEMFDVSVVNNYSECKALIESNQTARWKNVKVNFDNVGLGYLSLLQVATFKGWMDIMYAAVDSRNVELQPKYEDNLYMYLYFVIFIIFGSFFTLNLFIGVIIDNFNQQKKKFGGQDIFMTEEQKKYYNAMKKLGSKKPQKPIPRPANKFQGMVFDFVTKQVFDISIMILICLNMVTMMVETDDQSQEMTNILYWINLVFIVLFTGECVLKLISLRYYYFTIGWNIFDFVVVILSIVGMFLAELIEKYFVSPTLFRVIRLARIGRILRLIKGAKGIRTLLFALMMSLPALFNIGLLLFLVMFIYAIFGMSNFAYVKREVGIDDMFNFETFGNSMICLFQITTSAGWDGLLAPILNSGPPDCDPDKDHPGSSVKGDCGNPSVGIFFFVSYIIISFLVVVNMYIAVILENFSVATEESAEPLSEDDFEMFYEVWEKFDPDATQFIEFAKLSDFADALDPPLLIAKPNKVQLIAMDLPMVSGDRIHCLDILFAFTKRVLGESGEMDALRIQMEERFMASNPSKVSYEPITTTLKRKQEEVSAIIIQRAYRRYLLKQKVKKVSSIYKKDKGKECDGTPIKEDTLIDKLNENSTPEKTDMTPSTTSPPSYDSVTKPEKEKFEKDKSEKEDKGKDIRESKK
# Sequence (Q9NY46 whole entry, looked up, other chains not shown): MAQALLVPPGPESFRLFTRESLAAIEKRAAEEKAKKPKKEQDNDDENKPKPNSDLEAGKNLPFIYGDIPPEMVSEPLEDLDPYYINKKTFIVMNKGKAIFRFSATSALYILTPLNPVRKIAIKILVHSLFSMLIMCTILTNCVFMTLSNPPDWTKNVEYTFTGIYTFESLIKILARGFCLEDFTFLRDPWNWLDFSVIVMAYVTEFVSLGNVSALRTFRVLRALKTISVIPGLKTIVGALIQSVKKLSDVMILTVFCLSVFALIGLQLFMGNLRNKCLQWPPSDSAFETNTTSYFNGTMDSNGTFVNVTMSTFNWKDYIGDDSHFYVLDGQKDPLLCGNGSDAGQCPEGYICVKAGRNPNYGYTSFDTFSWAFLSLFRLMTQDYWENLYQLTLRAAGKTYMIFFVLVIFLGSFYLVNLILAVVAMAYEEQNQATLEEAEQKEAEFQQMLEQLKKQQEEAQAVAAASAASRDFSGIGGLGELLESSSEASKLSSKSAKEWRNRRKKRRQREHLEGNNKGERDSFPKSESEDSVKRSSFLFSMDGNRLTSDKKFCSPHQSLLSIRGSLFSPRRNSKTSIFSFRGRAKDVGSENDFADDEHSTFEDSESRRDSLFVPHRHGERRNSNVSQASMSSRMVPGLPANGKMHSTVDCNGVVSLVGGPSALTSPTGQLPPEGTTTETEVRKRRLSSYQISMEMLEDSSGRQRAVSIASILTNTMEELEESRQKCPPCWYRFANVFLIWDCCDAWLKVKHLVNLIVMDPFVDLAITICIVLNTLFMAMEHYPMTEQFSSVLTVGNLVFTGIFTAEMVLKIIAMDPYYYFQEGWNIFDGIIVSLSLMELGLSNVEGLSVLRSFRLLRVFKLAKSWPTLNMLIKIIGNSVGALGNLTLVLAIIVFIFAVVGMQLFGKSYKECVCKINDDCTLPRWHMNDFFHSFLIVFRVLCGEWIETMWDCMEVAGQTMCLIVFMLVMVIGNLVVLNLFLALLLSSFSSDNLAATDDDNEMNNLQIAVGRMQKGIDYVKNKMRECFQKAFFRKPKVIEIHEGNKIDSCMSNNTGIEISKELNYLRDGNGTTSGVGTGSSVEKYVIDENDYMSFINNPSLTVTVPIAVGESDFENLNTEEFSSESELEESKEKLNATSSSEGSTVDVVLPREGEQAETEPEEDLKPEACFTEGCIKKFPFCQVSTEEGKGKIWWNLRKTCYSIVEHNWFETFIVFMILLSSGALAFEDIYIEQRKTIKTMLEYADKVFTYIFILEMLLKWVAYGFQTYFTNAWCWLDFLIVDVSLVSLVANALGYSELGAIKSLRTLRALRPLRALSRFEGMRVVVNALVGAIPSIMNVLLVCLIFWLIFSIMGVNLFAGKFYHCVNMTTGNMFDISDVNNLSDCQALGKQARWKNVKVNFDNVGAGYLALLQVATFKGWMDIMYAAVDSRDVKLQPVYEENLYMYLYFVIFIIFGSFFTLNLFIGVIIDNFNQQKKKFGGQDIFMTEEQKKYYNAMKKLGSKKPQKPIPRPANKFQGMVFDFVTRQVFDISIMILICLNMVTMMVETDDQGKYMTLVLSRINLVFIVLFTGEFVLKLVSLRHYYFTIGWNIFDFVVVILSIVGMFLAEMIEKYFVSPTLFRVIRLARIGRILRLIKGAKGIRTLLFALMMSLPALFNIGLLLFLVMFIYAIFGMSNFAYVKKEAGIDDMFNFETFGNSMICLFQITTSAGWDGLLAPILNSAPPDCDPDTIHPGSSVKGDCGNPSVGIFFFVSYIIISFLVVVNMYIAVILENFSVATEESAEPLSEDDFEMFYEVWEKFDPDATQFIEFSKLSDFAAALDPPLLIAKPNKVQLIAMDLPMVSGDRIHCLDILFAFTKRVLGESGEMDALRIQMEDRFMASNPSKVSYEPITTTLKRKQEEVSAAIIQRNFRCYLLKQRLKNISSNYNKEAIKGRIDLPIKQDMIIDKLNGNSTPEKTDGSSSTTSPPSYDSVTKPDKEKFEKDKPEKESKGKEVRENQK
# Experiment Summary: Inhibition of binding of Batrachotoxinin [3H]BTX-B to high affinity sites on voltage dependent sodium channels in a vesicular preparation from guinea pig cerebral cortex
# Type: tissue-based, Cavia porcellus
Reported log10(IC50) values are given for each entry in this list.
Base-10 log of IC50, unit µM.

Look over these answered cases.
{"Compound": "C=C[C@@]1(C)CC(=O)[C@]2(O)[C@@]3(C)[C@@H](O)CCC(C)(C)[C@@H]3[C@H](O)[C@H](OC(C)=O)[C@@]2(C)O1", "Value Reported": 1.78}
{"Compound": "CCN(CC)CCCC(C)Nc1c2ccc(Cl)cc2nc2ccc(OC)cc12 (stereo not given)", "Value Reported": 0.52}
{"Compound": "CC(CNC1CCCCC1)OC(=O)c1ccccc1 (stereo not given)", "Value Reported": 0.85}

From here, focus on the item given below.
*Q* Determine from records and report log10(IC50) for CN1CCN2c3ccccc3Cc3ccccc3C2C1 (stereo not given)
*A* 0.74

====

# System: Sodium channel alpha subunits; brain (Types I, II, III) (Homo sapiens, UniProt P35498+Q99250+Q9NY46)
# Setup Conditions: Cavia porcellus; Cerebral cortex; at 10 µM
Measure Name: inhibition
Please state the value followed by its unit.

Look over these answered cases.
{"Molecule": "O=C1C[C@@H]2OCC=C3CN4CC[C@]56c7ccccc7N1[C@H]5[C@H]2[C@H]3C[C@H]46", "Value Reported": "35.7%"}
{"Molecule": "Cc1ccc(N(CC2=NCCN2)c2cccc(O)c2)cc1", "Value Reported": "54.6%"}
{"Molecule": "CC(C)COCC(CN(Cc1ccccc1)c1ccccc1)N1CCCC1 (stereo not given)", "Value Reported": "96.2%"}
{"Molecule": "CN1C(=O)CN=C(c2ccccc2)c2cc(Cl)ccc21", "Value Reported": "15.2%"}

From here, focus on the item given below.
*Q* Determine from records and report inhibition for CCCN(CC)C(CC)C(=O)Nc1c(C)cccc1C (stereo not given)
*A* 73.2%

====

# System: Sodium channel alpha subunits; brain (Types I, II, III) (Homo sapiens, UniProt P35498+Q99250+Q9NY46)
# Experiment Summary: Inhibition of binding of Batrachotoxinin [3H]BTX-B to high affinity sites on voltage dependent sodium channels in a vesicular preparation from guinea pig cerebral cortex
# Assay type: tissue-based, Cavia porcellus
Reported log10 IC50 values are given for each entry in this list.
Base-10 log of IC50, unit µM.

Look over these answered cases.
{"Compound": "COc1cc(C(=O)OCCCN(C)CCN(C)CCCOC(=O)c2cc(OC)c(OC)c(OC)c2)cc(OC)c1OC [HEXOBENDINE]", "log10 IC50": 0.15}
{"Compound": "CN(C)C(=O)C(CCN1CCC(O)(c2ccc(Cl)c(C(F)(F)F)c2)CC1)(c1ccccc1)c1ccccc1 [FLUPERAMIDE]", "log10 IC50": -0.55}
{"Compound": "OCCN1CCN(CCCN2c3ccccc3Sc3ccc(C(F)(F)F)cc32)CC1", "log10 IC50": 0.57}

*Q* Determine from records and report log10 IC50 for CC(C)Cn1c(=O)n(C)c(=O)c2nc[nH]c21
*A* 0.26

*Q* Determine from records and report log10 IC50 for CC1CCCC[N+]1(C)CCCOC(=O)c1ccccc1.[I-] (centres undefined)
*A* 2.56

*Q* Determine from records and report log10 IC50 for CCOc1ccc(C(=O)OCCN(CC)CC)cc1
*A* 1.38

*Q* Determine from records and report log10 IC50 for COC(=O)C1=C(C)NC(C)=C(C(=O)OCC(C)C)C1c1ccccc1[N+](=O)[O-] (centres undefined)
*A* 1.41

*Q* Determine from records and report log10 IC50 for CSc1ccc2c(c1)N(CCC1CCCCN1C)c1ccccc1S2 (centres undefined)
*A* 0.81

*Q* Determine from records and report log10 IC50 for CC(C)(C)NCC(CO)O/N=C1\c2ccccc2C2C=CC=CC12 (centres undefined)
*A* 0.57

====

# System: Sodium channel alpha subunits; brain (Types I, II, III) (Homo sapiens, UniProt P35498+Q99250+Q9NY46)
# Setup Conditions: Cavia porcellus; Cerebral cortex; at 10 µM
Measure Name: inhibition (%)
Just the number please, in %, no unit attached.

*Q* Determine from records and report inhibition for COC(=O)[C@H]1[C@H]2C[C@@H]3c4[nH]c5cc(OC)ccc5c4CCN3C[C@H]2C[C@@H](OC(=O)c2cc(OC)c(OC)c(OC)c2)[C@@H]1OC [RESERPINE]
*A* 100

*Q* Determine from records and report inhibition for Nc1ccncc1
*A* 1.2

====

# System: Sodium channel alpha subunits; brain (Types I, II, III) (Homo sapiens, UniProt P35498+Q99250+Q9NY46)
# Experiment Summary: Inhibition of binding of Batrachotoxinin [3H]BTX-B to high affinity sites on voltage dependent sodium channels in a vesicular preparation from guinea pig cerebral cortex
# Format: tissue-based, Cavia porcellus
Measure Name: IC50 (µM)
Just the number please, in µM, no unit attached.

Look over these answered cases.
{"Structure Notation": "CCCC(C(=O)OCC[N+](C)(CC)CC)(c1ccccc1)c1ccccc1.[I-]", "IC50 (µM)": 4.2}
{"Structure Notation": "CCCCC1=C(N(C)C)c2cc3c(cc2C1)OCO3", "IC50 (µM)": 12.5}

From here, focus on the item given below.
*Q* Determine from records and report IC50 for Cn1c(=O)c2c(ncn2C)n(C)c1=O
*A* 660

====

# System: Sodium channel alpha subunits; brain (Types I, II, III) (Homo sapiens, UniProt P35498+Q99250+Q9NY46)
# Setup Conditions: Cavia porcellus; Cerebral cortex; at 100 µM
Reported inhibition values are given for each entry in this list.
Just the number please, in %, no unit attached.

{"Compound": "COc1ccc(CN(CCN(C)C)c2nccs2)cc1 [ZOLAMINE]", "Measure Name": "inhibition", "Value Reported": 82.4}
{"Compound": "C[C@@H]1O[C@H](n2cnc3c(N)ncnc32)C[C@H]1O", "Measure Name": "inhibition", "Value Reported": 3.5}
{"Compound": "C=C[C@@]1(C)CC(=O)[C@]2(O)[C@@]3(C)[C@@H](O)CCC(C)(C)[C@@H]3[C@H](O)[C@H](OC(C)=O)[C@@]2(C)O1 [COLFORSIN]", "Measure Name": "inhibition", "Value Reported": 62.8}
{"Compound": "Nc1ccncc1", "Measure Name": "inhibition", "Value Reported": 3.8}
{"Compound": "COC(=O)[C@H]1[C@@H](OC(=O)c2ccccc2)C[C@@H]2CC[C@H]1N2C [COCAINE]", "Measure Name": "inhibition", "Value Reported": 63.2}
{"Compound": "COc1ccc(C2CNC(=O)C2)cc1OC1CCCC1 (stereo not given)", "Measure Name": "inhibition", "Value Reported": 8.5}

*Q* Determine from records and report inhibition for CN1CCc2cc3c(cc2[C@H]1[C@@H]1OC(=O)c2c1ccc1c2OCO1)OCO3
*A* 1.8

*Q* Determine from records and report inhibition for CN(C)CCCN1c2ccccc2[S+]([O-])c2ccc(Cl)cc21 (stereo not given)
*A* 69.1

*Q* Determine from records and report inhibition for CCN(CC)CCCCCCCCOC(=O)c1cc(C)c(C)c(C)c1
*A* 21.6

*Q* Determine from records and report inhibition for CC(C)CNCCOC(=O)c1ccc(N)cc1 [BUTETHAMINE]
*A* 63.2

====

# System: Sodium channel alpha subunits; brain (Types I, II, III) (Homo sapiens, UniProt P35498+Q99250+Q9NY46)
# Setup Conditions: Cavia porcellus; Cerebral cortex; at 100 µM
Cut-off 30% on inhibition, inclusive. At or above means True; below means False.

Please review the following examples before continuing.
{"Compound": "CC(C)NCC(O)c1ccc(NS(C)(=O)=O)cc1 (stereo not drawn)", "Discrete Label": "False"}
{"Compound": "c1ccc2c(c1)OCC(CN1CCCCC1)O2 (stereo not drawn) [PIPEROXAN]", "Discrete Label": "True"}
{"Compound": "COc1cc2c(cc1OC)C1CC(=O)C(CC(C)C)CN1CC2 (stereo not drawn) [TETRABENAZINE]", "Discrete Label": "True"}
{"Compound": "CCCNC(C)C(=O)Nc1c(C)csc1C(=O)OC (stereo not drawn) [ARTICAINE]", "Discrete Label": "True"}
{"Compound": "Nc1nc(Cl)nc2c1ncn2[C@@H]1O[C@H](CO)[C@@H](O)[C@H]1O", "Discrete Label": "False"}
{"Compound": "CN1CC[C@]23c4c5ccc(O)c4O[C@H]2[C@@H](O)C=C[C@H]3[C@H]1C5", "Discrete Label": "False"}
{"Compound": "CCCC(C)C1(CC)C(=O)NC(=O)NC1=O (stereo not drawn)", "Discrete Label": "False"}
{"Compound": "CCN(CC)CCNC(=O)c1ccc(N=[N+]=[N-])cc1", "Discrete Label": "True"}

*Q* For this compound, is measured inhibition 30% or higher? N=C1CCCCCCCCCCCN1C1CCCC1c1ccccc1 (stereo not drawn)
*A* True

*Q* For this compound, is measured inhibition 30% or higher? COc1ccc(Cc2nccc3cc(OC)c(OC)cc23)cc1OC
*A* True

*Q* For this compound, is measured inhibition 30% or higher? CCN(CC)CCNC(=O)c1ccc(N)cc1
*A* False

*Q* For this compound, is measured inhibition 30% or higher? COc1ccc(C2C(=O)c3ccccc3C2=O)cc1
*A* False
